Mu-type opioid receptor (Homo sapiens): reported pKi for various compounds.
Sequence (P35372 whole entry): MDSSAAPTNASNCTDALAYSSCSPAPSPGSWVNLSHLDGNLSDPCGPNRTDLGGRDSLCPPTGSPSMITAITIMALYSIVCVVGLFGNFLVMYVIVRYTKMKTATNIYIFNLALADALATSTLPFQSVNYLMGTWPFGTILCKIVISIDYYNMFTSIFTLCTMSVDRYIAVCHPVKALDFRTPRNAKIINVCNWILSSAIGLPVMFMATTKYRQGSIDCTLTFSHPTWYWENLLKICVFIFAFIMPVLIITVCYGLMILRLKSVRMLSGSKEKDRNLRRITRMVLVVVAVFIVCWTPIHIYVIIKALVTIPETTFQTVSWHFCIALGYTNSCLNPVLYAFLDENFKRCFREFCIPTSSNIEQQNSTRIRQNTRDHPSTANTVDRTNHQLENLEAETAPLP
Answers are plain numbers, as −log10 of the molar value.

Go through the list and state pKi for each entry.
1. Oc1ccc2c3c1O[C@H]1c4[nH]c5ccccc5c4C[C@@]4(O)[C@@H](C2)N(CCF)CC[C@]314
2. CCN1CC[C@]23c4c5ccc(O)c4O[C@H]2c2nc4ccccc4cc2C[C@@]3(O)[C@H]1C5
3. CCCN1CC[C@]23c4c5ccc(O)c4O[C@H]2c2[nH]c4ccccc4c2C[C@@]3(O)[C@H]1C5
4. CCN1CC[C@]23c4c5ccc(O)c4O[C@H]2c2[nH]c4ccccc4c2C[C@@]3(O)[C@H]1C5

6.17
6.17
6.88
6.10

====

- Species on record: Homo sapiens
- TEST_DESCRIPTION: Selectivity index, ratio of Ki for human MOR to Ki for human DOR
Record form. Attribute: Ratio Ki. Fill in for each entry.
Answers are plain numbers.

Some solved cases for reference:
- Oc1ccc2c3c1O[C@H]1c4[nH]c5ccccc5c4C[C@@]4(O)[C@@H](C2)N(CCF)CC[C@]314: 348
- Oc1ccc2c3c1O[C@H]1c4nc5ccccc5cc4C[C@@]4(O)[C@@H](C2)N(CCF)CC[C@]314: 75.7

Next compound, please.
Please look up its Ratio Ki: CCN1CC[C@]23c4c5ccc(O)c4O[C@H]2c2[nH]c4ccccc4c2C[C@@]3(O)[C@H]1C5
291

====

Kappa-type opioid receptor (Homo sapiens, UniProt P41145): reported pKi for various molecules.
Sequence (P41145 whole entry): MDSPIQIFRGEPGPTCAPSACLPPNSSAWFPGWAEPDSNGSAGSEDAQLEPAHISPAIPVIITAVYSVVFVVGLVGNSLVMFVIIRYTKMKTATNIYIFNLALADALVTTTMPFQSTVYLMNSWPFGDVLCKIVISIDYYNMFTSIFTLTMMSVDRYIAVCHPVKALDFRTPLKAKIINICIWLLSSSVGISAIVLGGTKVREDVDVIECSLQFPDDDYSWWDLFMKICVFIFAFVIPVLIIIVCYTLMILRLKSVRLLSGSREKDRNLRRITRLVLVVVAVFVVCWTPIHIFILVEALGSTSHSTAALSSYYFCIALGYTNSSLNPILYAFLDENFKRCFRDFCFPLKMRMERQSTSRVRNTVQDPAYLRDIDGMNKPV
Numbers only, as −log10 of the molar value.

* CCCN1CC[C@]23c4c5ccc(O)c4O[C@H]2c2nc4ccccc4cc2C[C@@]3(O)[C@H]1C5 | 6.50
* CCN1CC[C@]23c4c5ccc(O)c4O[C@H]2c2[nH]c4ccccc4c2C[C@@]3(O)[C@H]1C5 | 6.33

Go through the list and state pKi for each entry.
1. CCN1CC[C@]23c4c5ccc(O)c4O[C@H]2c2nc4ccccc4cc2C[C@@]3(O)[C@H]1C5
2. Oc1ccc2c3c1O[C@H]1c4[nH]c5ccccc5c4C[C@@]4(O)[C@@H](C2)N(CCF)CC[C@]314
3. Oc1ccc2c3c1O[C@H]1c4nc5ccccc5cc4C[C@@]4(O)[C@@H](C2)N(CCF)CC[C@]314
4. CCCN1CC[C@]23c4c5ccc(O)c4O[C@H]2c2[nH]c4ccccc4c2C[C@@]3(O)[C@H]1C5
5. Oc1ccc2c3c1O[C@H]1c4nc5ccccc5cc4C[C@@]4(O)[C@@H](C2)N(CC2CC2)CC[C@]314

[6.32, 6.40, 6.07, 7.13, 7.96]

====

Record form. Attribute: Ratio Ki. Fill in for each entry.
- Species on record: Homo sapiens
- TEST_DESCRIPTION: Selectivity index, ratio of Ki for human KOR to Ki for human DOR
Numbers only.

Some solved cases for reference:
• Oc1ccc2c3c1O[C@H]1c4[nH]c5ccccc5c4C[C@@]4(O)[C@@H](C2)N(CCF)CC[C@]314 = 204
• CCN1CC[C@]23c4c5ccc(O)c4O[C@H]2c2nc4ccccc4cc2C[C@@]3(O)[C@H]1C5 = 53.7
• CCCN1CC[C@]23c4c5ccc(O)c4O[C@H]2c2nc4ccccc4cc2C[C@@]3(O)[C@H]1C5 = 113

Go through the list and state Ratio Ki for each entry.
1. Oc1ccc2c3c1O[C@H]1c4nc5ccccc5cc4C[C@@]4(O)[C@@H](C2)N(CCF)CC[C@]314
2. CCCN1CC[C@]23c4c5ccc(O)c4O[C@H]2c2[nH]c4ccccc4c2C[C@@]3(O)[C@H]1C5
3. Oc1ccc2c3c1O[C@H]1c4nc5ccccc5cc4C[C@@]4(O)[C@@H](C2)N(CC2CC2)CC[C@]314

1: 153; 2: 66.9; 3: 27.1

Please look up its Ratio Ki: CCN1CC[C@]23c4c5ccc(O)c4O[C@H]2c2[nH]c4ccccc4c2C[C@@]3(O)[C@H]1C5
172

====

- STUDY_TARGET: Delta-type opioid receptor (Homo sapiens, UniProt P41143)
- Sequence (P41143 whole entry): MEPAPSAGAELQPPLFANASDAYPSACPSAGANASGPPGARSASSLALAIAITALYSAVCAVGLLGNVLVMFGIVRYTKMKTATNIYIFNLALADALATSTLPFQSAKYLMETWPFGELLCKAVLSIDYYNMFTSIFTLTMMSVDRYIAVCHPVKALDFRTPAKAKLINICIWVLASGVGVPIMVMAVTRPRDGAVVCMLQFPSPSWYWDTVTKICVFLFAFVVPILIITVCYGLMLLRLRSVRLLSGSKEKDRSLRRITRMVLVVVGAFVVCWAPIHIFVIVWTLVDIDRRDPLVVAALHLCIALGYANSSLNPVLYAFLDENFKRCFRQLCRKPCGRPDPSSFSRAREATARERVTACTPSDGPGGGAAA
- TEST_DESCRIPTION: Inverse agonist activity at human DOR expressed in CHO cell membranes by [35S]GTPgammaS binding assay relative to control
- Type: functional
Square brackets hold non-standard residues; d marks the D form. Peptide text beside a SMILES is read from it. * marks the point of attachment. Tyr(Nα,Nα-allyl2) = C=CCN(CC=C)[C@@H](Cc1ccc(O)cc1)C(=O)*; Aib = CC(C)(N)C(=O)O
Tag: Met if measured Emax is not below 30%, Not met if it is.

• CCCN1CC[C@]23c4c5ccc(O)c4O[C@H]2c2nc4ccccc4cc2C[C@@]3(O)[C@H]1C5 = Met
• Oc1ccc2c3c1O[C@H]1c4[nH]c5ccccc5c4C[C@@]4(O)[C@@H](C2)N(CC(F)(F)F)CC[C@]314 = Not met
• C=CCN(CC=C)[C@@H](Cc1ccc(O)cc1)C(=O)NC(C)(C)C(=O)NC(C)(C)C(=O)N[C@@H](Cc1ccccc1)C(=O)N[C@@H](CC(C)C)C(=O)O ({Tyr(Nα,Nα-allyl2)}-[Aib][Aib]FL-OH) = Not met
• CCN1CC[C@]23c4c5ccc(O)c4O[C@H]2c2nc4ccccc4cc2C[C@@]3(O)[C@H]1C5 = Met
• Oc1ccc2c3c1O[C@H]1c4[nH]c5ccccc5c4C[C@@]4(O)[C@@H](C2)N(CC(F)F)CC[C@]314 = Not met
• Oc1ccc2c3c1O[C@H]1c4nc5ccccc5cc4C[C@@]4(O)[C@@H](C2)N(CCF)CC[C@]314 = Not met
• Oc1ccc2c3c1O[C@H]1c4nc5ccccc5cc4C[C@@]4(O)[C@@H](C2)N(CC2CC2)CC[C@]314 = Met

Could you verify whether the entry Oc1ccc2c3c1O[C@H]1c4[nH]c5ccccc5c4C[C@@]4(O)[C@@H](C2)N(CCF)CC[C@]314 shows Emax of no less than 30%?
Not met

====

- STUDY_TARGET: Delta-type opioid receptor (Homo sapiens, UniProt P41143)
- TEST_DESCRIPTION: Displacement of [3H]DPDPE from human DOR expressed in CHO cells
pKi: −log10 of the molar value.
Tag: TRUE if measured pKi is not below 8, FALSE if it is.

A selection of reference data follows.
- Oc1ccc2c3c1O[C@H]1c4nc5ccccc5cc4C[C@@]4(O)[C@@H](C2)N(CC(F)F)CC[C@]314: FALSE
- Oc1ccc2c3c1O[C@H]1c4nc5ccccc5cc4C[C@@]4(O)[C@@H](C2)N(CCF)CC[C@]314: TRUE
- Oc1ccc2c3c1O[C@H]1c4nc5ccccc5cc4C[C@@]4(O)[C@@H](C2)N(CC2CC2)CC[C@]314: TRUE
- CCCN1CC[C@]23c4c5ccc(O)c4O[C@H]2c2[nH]c4ccccc4c2C[C@@]3(O)[C@H]1C5: TRUE

Now for a further molecule.
Could you verify whether the entry Oc1ccc2c3c1O[C@H]1c4nc5ccccc5cc4C[C@@]4(O)[C@@H](C2)N(CC(F)(F)F)CC[C@]314 shows pKi of no less than 8?
FALSE

====

- Species: Homo sapiens
- TEST_DESCRIPTION: Selectivity index, ratio of Ki for human MOR to Ki for human DOR
PROPERTY_LABEL: Ratio Ki
Give bare numbers.

* Oc1ccc2c3c1O[C@H]1c4nc5ccccc5cc4C[C@@]4(O)[C@@H](C2)N(CC2CC2)CC[C@]314 | 51.1

Go through the list and state Ratio Ki for each entry.
1. CCCN1CC[C@]23c4c5ccc(O)c4O[C@H]2c2[nH]c4ccccc4c2C[C@@]3(O)[C@H]1C5
2. CCN1CC[C@]23c4c5ccc(O)c4O[C@H]2c2nc4ccccc4cc2C[C@@]3(O)[C@H]1C5
3. CCCN1CC[C@]23c4c5ccc(O)c4O[C@H]2c2nc4ccccc4cc2C[C@@]3(O)[C@H]1C5

[120, 75.4, 44.5]

====

- STUDY_TARGET: Delta-type opioid receptor (Homo sapiens)
- TEST_DESCRIPTION: Inverse agonist activity at human DOR expressed in CHO cell membranes by [35S]GTPgammaS binding assay
Square brackets hold non-standard residues; d marks the D form. Peptide text beside a SMILES is read from it. * marks the point of attachment. Tyr(Nα,Nα-allyl2) = C=CCN(CC=C)[C@@H](Cc1ccc(O)cc1)C(=O)*; Aib = CC(C)(N)C(=O)O
PROPERTY_LABEL: pEC50
Answers are plain numbers, as −log10 of the molar value.

Some solved cases for reference:
- CCN1CC[C@]23c4c5ccc(O)c4O[C@H]2c2nc4ccccc4cc2C[C@@]3(O)[C@H]1C5: 8.17
- Oc1ccc2c3c1O[C@H]1c4nc5ccccc5cc4C[C@@]4(O)[C@@H](C2)N(CC2CC2)CC[C@]314: 8.01
- Oc1ccc2c3c1O[C@H]1c4[nH]c5ccccc5c4C[C@@]4(O)[C@@H](C2)N(CC(F)(F)F)CC[C@]314: 7.34
- Oc1ccc2c3c1O[C@H]1c4[nH]c5ccccc5c4C[C@@]4(O)[C@@H](C2)N(CC(F)F)CC[C@]314: 7.76

Go through the list and state pEC50 for each entry.
1. CCCN1CC[C@]23c4c5ccc(O)c4O[C@H]2c2nc4ccccc4cc2C[C@@]3(O)[C@H]1C5
2. Oc1ccc2c3c1O[C@H]1c4nc5ccccc5cc4C[C@@]4(O)[C@@H](C2)N(CCF)CC[C@]314

1: 8.23; 2: 7.61

Go through the list and state pEC50 for each entry.
1. Oc1ccc2c3c1O[C@H]1c4[nH]c5ccccc5c4C[C@@]4(O)[C@@H](C2)N(CCF)CC[C@]314
2. C=CCN(CC=C)[C@@H](Cc1ccc(O)cc1)C(=O)NC(C)(C)C(=O)NC(C)(C)C(=O)N[C@@H](Cc1ccccc1)C(=O)N[C@@H](CC(C)C)C(=O)O ({Tyr(Nα,Nα-allyl2)}-[Aib][Aib]FL-OH)

[6.66, 6.94]
